- System: 786-0 renal
- Procedure summary: NCI tumour cell line growth inhibition, 48 h
Attribute measured: TGI

These solved cases illustrate the format of a correct answer.
Cc1cc2nc(C(C)C(=O)c3ccc(Cl)cc3)c(=O)[nH]c2cc1C (stereo not given)	92.3 µM
COc1cc(Cc2cc3c(c(C(=O)O)c2Br)OCO3)cc(OC)c1OC	> 100 µM
O=S(=O)(O)c1c(Cl)cc(O)c2ncccc12	> 100 µM
O=c1cc(NCCCCCO)[nH]c(=O)[nH]1	> 100 µM

Query: Name the recorded TGI of the item `C=C1C(=O)O[C@H]2[C@H]1CC/C(CNC(=O)Cc1c[nH]c3ccccc13)=C\CC[C@@]1(C)O[C@@H]21` in your answer.
Reply: 4.98 µM

Query: Name the recorded TGI of the item `O=C1C(Cl)=C(Nc2cccc(Cl)c2)C(=O)N1Cc1ccccc1` in your answer.
Reply: 16.2 µM

Query: Name the recorded TGI of the item CC(NS(=O)(=O)c1ccc([N+](=O)[O-])cc1)C(=O)O (stereo not given) in your answer.
Reply: > 100 µM

Query: Name the recorded TGI of the item `CCOC(=O)c1ccc2[nH]c(-c3ccc(S(=O)(=O)F)cc3)cc(=O)c2c1` in your answer.
Reply: > 100 µM

Query: Name the recorded TGI of the item `ON/N=C/c1cc2c(cc1Br)OCO2` in your answer.
Reply: > 386 µM

Query: Name the recorded TGI of the item O=P1(C(O)/C=C/c2ccccc2)N(Cc2ccccc2)[C@H](c2ccccc2)[C@@H](c2ccccc2)N1Cc1ccccc1 (stereo not given in full) in your answer.
Reply: > 100 µM
